- testedOn: PI3KIII (Homo sapiens, UniProt Q8NEB9)
- Sequence (Q8NEB9 whole entry): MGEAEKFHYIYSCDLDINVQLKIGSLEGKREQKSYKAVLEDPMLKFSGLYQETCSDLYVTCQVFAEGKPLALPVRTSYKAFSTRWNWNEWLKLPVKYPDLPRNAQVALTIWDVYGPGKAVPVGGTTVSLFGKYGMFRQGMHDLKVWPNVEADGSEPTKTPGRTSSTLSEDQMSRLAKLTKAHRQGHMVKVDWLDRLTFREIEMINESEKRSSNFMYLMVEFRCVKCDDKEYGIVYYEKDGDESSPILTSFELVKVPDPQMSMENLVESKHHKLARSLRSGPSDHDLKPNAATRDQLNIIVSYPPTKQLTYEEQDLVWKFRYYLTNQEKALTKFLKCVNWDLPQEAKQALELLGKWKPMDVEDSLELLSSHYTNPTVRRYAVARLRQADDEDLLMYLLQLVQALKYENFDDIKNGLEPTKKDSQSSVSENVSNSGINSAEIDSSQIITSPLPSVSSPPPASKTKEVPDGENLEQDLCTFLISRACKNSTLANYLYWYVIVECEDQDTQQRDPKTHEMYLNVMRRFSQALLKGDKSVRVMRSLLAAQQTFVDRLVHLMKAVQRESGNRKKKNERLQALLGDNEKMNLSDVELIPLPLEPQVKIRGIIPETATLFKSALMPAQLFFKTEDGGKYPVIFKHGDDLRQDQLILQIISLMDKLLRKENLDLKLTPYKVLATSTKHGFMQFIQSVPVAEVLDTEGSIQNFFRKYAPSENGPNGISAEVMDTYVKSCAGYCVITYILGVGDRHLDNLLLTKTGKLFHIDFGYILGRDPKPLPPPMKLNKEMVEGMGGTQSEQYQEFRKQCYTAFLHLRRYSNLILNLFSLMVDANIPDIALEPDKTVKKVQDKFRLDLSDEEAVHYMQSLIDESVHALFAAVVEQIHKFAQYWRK
- test: Class III PI(3)P assay (U20S EGFP-2XFYVE cells)
pIC50: −log10 of the molar value.
observationType: pIC50

Check out these entries, answers already filled in.
Item C[C@H](Nc1ncnc(N)c1C#N)c1nc2cccc(Cl)c2nc1-c1ccccc1S(C)(=O)=O [Example 5] : provide pIC50
< 5.00

Item C[C@H](Nc1ncnc(N)c1C#N)c1cc2ccc(F)cc2nc1-c1ccccc1S(C)(=O)=O [Example 2] : provide pIC50
< 5.00

We next turn to a different compound, shown below.
Item C[C@H](Nc1ncnc(N)c1C#N)c1nc2ccc(F)cc2nc1-c1ccccn1 [Example 7] : provide pIC50
< 5.00

---

- testedOn: PI3Kg (Homo sapiens, UniProt P48736)
- Construct: Truncated PI3Kγ, residues 114-1102, N-terminally labeled with polyHis tag; polyHis (N)
- Sequence (P48736 114-1102): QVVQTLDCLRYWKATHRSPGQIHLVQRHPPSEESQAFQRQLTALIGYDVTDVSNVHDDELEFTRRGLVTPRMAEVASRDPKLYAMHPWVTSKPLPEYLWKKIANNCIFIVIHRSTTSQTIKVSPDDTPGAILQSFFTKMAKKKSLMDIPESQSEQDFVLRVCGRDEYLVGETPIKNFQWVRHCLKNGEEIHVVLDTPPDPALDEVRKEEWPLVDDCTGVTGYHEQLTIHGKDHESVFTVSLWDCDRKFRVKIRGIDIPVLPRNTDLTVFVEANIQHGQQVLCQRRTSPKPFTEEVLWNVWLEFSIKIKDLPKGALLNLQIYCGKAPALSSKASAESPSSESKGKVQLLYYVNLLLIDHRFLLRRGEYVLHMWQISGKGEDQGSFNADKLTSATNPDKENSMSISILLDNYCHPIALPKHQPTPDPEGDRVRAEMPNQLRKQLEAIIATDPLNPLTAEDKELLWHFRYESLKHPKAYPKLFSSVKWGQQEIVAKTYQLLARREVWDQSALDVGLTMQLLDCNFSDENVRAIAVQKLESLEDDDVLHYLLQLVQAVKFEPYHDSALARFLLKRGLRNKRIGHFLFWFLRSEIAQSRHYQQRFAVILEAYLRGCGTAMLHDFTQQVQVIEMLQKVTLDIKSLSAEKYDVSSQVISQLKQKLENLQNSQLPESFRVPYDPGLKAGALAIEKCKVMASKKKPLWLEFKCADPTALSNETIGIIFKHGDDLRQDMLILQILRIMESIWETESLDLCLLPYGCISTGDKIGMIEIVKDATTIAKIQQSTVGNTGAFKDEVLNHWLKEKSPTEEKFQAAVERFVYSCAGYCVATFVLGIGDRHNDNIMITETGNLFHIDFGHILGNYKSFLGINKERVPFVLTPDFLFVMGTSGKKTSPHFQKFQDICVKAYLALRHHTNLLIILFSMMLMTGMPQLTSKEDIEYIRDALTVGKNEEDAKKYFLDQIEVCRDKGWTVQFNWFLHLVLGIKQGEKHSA
- test: In vitro enzyme assay, PI3K gamma
- Experimental: Full length p110 subunits of PI3k α, β and δ, N-terminally labeled with polyHis tag, were coexpressed with p85 with Baculo virus expression vectors in sf9 insect cells. P110/p85 heterodimers were purified by sequential Ni-NTA, Q-HP, Superdex-100 chromatography. Purified α, β and δ isozymes were stored at −20° C. in 20 mM Tris, pH 8, 0.2M NaCl, 50% glycerol, 5 mM DTT, 2 mM Na cholate. […]
Entries annotated with measured IC50
Form entry: value (nM) — number only.

Specify the recorded IC50 for C[C@H](Nc1ncnc(N)c1C#N)c1nc2cccc(Cl)c2nc1-c1ccccc1S(C)(=O)=O , system: PI3Kg (Homo sapiens, UniProt P48736).
620

Specify the recorded IC50 for C[C@H](Nc1ncnc(N)c1C#N)c1cc2cccc(F)c2nc1-c1ccccc1S(C)(=O)=O , system: PI3Kg (Homo sapiens, UniProt P48736).
1610

Specify the recorded IC50 for C[C@H](Nc1ncnc(N)c1C#N)c1nc2cccc(C#N)c2nc1-c1ccccc1S(C)(=O)=O , system: PI3Kg (Homo sapiens, UniProt P48736).
2800

New cases:
Specify the recorded IC50 for C[C@H](Nc1ncnc(N)c1C#N)c1cc2ccc(F)cc2nc1-c1ccccc1S(C)(=O)=O , system: PI3Kg (Homo sapiens, UniProt P48736).
804

Specify the recorded IC50 for C[C@H](Nc1ncnc(N)c1C#N)c1nc2ccc(F)cc2nc1-c1ccccn1 , system: PI3Kg (Homo sapiens, UniProt P48736).
3900

Specify the recorded IC50 for C[C@H](Nc1ncnc(N)c1C#N)c1cc2ccc(F)cc2nc1-c1ccccn1 , system: PI3Kg (Homo sapiens, UniProt P48736).
448

Specify the recorded IC50 for C[C@H](Nc1ncnc(N)c1C#N)c1cc2ccc(F)cc2nc1-c1cccc(F)c1 , system: PI3Kg (Homo sapiens, UniProt P48736).
62.9

---

- testedOn: PI3Ka (Homo sapiens)
- Construct: Full length p110 subunits of PI3k α, β and δ, N-terminally labeled with polyHis tag; polyHis (N); made in house; host or cells: Sf9 insect cells (baculovirus)
- test: In vitro enzyme assay, PI3K alpha
- Type: biochemical
Label true when PI3Ka IC50 is strictly below 10 µM; at or above that, label false.

The examples below pair each entry with its known result.
Problem: For the compound C[C@H](Nc1ncnc(N)c1C#N)c1nc2cccc(C#N)c2nc1-c1ccccc1S(C)(=O)=O , is PI3Ka IC50 under 10 µM?
false

Problem: For the compound C[C@H](Nc1ncnc(N)c1C#N)c1cc2ccc(F)cc2nc1-c1ccccc1S(C)(=O)=O , is PI3Ka IC50 under 10 µM?
true

Problem: For the compound C[C@H](Nc1ncnc(N)c1C#N)c1nc2cccc(Cl)c2nc1-c1ccccc1S(C)(=O)=O , is PI3Ka IC50 under 10 µM?
true

Problem: For the compound C[C@H](Nc1ncnc(N)c1C#N)c1nc2ccc(F)cc2nc1-c1ccccn1 , is PI3Ka IC50 under 10 µM?
false

Problem: For the compound C[C@H](Nc1ncnc(N)c1C#N)c1cc2ccc(F)cc2nc1-c1cccc(F)c1 , is PI3Ka IC50 under 10 µM?
true

Kindly consider the entry below.
Problem: For the compound C[C@H](Nc1ncnc(N)c1C#N)c1cc2ccc(F)cc2nc1-c1ccccn1 , is PI3Ka IC50 under 10 µM?
false

---

- testedOn: PI3K d (Homo sapiens)
- Construct: Full length p110 subunits of PI3k α, β and δ, N-terminally labeled with polyHis tag; polyHis (N)
- test: In vitro enzyme assay, PI3K delta
Label class 1 when IC50 is strictly below 8 nM; at or above that, label class 0.

Problem: For the molecule C[C@H](Nc1ncnc(N)c1C#N)c1nc2cccc(C#N)c2nc1-c1ccccc1S(C)(=O)=O , is IC50 under 8 nM?
class 1

New cases:
Problem: For the molecule C[C@H](Nc1ncnc(N)c1C#N)c1nc2cccc(Cl)c2nc1-c1ccccc1S(C)(=O)=O , is IC50 under 8 nM?
class 1

Problem: For the molecule C[C@H](Nc1ncnc(N)c1C#N)c1cc2cccc(F)c2nc1-c1ccccc1S(C)(=O)=O , is IC50 under 8 nM?
class 1

Problem: For the molecule C[C@H](Nc1ncnc(N)c1C#N)c1cc2ccc(F)cc2nc1-c1cccc(F)c1 , is IC50 under 8 nM?
class 1

Problem: For the molecule C[C@H](Nc1ncnc(N)c1C#N)c1cc2ccc(F)cc2nc1-c1ccccn1 , is IC50 under 8 nM?
class 0

Problem: For the molecule C[C@H](Nc1ncnc(N)c1C#N)c1nc2ccc(F)cc2nc1-c1ccccn1 , is IC50 under 8 nM?
class 0

---

- testedOn: PI3Kb (Homo sapiens, UniProt P42338)
- Sequence (P42338 whole entry): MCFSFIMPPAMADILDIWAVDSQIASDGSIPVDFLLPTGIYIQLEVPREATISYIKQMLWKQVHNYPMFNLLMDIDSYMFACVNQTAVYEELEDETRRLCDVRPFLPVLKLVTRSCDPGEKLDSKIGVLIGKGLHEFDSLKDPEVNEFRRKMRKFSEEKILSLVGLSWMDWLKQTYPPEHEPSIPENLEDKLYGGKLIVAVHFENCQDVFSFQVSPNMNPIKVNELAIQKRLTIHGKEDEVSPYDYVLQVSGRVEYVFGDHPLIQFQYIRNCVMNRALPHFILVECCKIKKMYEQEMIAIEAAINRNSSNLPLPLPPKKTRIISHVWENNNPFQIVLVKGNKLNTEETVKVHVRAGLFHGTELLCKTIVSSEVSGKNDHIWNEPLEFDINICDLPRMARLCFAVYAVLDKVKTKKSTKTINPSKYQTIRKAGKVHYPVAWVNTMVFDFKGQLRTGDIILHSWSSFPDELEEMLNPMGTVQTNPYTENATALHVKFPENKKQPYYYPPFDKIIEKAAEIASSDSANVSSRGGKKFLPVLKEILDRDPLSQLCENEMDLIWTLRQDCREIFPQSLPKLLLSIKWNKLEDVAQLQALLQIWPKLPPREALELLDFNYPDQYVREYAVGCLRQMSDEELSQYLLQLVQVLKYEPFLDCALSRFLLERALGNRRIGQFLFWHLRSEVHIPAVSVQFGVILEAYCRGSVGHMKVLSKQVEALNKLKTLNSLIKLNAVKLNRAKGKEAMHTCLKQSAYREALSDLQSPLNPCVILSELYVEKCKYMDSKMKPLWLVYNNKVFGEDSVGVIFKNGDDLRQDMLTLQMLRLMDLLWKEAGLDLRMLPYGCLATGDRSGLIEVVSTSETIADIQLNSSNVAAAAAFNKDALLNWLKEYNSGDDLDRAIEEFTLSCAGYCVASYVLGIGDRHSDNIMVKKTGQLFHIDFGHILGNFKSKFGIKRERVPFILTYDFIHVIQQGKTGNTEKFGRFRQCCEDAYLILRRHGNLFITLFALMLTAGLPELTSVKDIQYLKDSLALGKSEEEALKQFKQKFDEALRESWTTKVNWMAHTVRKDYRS
- Sequence (P27986 whole entry partner): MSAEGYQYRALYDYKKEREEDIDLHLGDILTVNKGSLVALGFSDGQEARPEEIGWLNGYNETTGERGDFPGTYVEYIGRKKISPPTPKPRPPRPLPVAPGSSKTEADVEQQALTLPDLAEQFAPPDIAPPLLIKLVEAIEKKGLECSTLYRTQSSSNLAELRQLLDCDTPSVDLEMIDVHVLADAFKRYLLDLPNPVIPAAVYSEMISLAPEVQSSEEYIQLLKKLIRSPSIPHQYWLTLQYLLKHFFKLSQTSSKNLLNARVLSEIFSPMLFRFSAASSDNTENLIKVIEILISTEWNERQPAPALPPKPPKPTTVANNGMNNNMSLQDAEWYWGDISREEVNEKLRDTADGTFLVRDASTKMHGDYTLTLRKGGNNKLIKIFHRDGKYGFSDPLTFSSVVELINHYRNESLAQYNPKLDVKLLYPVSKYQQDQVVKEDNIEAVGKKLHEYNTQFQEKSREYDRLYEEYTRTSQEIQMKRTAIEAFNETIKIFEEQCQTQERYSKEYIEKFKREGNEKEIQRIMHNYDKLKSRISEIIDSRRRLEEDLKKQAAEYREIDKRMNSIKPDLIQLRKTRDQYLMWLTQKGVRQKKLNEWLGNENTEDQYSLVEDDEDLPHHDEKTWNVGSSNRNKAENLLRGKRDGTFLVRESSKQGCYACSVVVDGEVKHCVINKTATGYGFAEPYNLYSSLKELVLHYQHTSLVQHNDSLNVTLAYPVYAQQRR
- test: PI3Kb MB MDA468 cell assay
- Type: cell-based
- Set-up: endogenous in cells; host or cells: MDA MB468 (Forkhead-DiversaGFP) cells
- experimentalContext: second value of the cell; read-out: PI3KbMBMDA468
observationType: IC50 (µM)
Form entry: value (µM) — number only.

Check out these entries, answers already filled in.
Item C[C@H](Nc1ncnc(N)c1C#N)c1nc2cccc(C#N)c2nc1-c1ccccc1S(C)(=O)=O [Example 6] : provide IC50
11

Item C[C@H](Nc1ncnc(N)c1C#N)c1cc2cccc(F)c2nc1-c1ccccc1S(C)(=O)=O [Example 1] : provide IC50
2.6

Item C[C@H](Nc1ncnc(N)c1C#N)c1cc2ccc(F)cc2nc1-c1ccccn1 [Example 4] : provide IC50
0.62

New cases:
Item C[C@H](Nc1ncnc(N)c1C#N)c1cc2ccc(F)cc2nc1-c1cccc(F)c1 [Example 3] : provide IC50
0.483

Item C[C@H](Nc1ncnc(N)c1C#N)c1cc2ccc(F)cc2nc1-c1ccccc1S(C)(=O)=O [Example 2] : provide IC50
0.811

---

- testedOn: PI3Ka (Homo sapiens, UniProt P42336)
- Construct: Full length p110 subunits of PI3k α, β and δ, N-terminally labeled with polyHis tag; polyHis (N); made in house; host or cells: Sf9 insect cells (baculovirus)
- Sequence (P42336 whole entry): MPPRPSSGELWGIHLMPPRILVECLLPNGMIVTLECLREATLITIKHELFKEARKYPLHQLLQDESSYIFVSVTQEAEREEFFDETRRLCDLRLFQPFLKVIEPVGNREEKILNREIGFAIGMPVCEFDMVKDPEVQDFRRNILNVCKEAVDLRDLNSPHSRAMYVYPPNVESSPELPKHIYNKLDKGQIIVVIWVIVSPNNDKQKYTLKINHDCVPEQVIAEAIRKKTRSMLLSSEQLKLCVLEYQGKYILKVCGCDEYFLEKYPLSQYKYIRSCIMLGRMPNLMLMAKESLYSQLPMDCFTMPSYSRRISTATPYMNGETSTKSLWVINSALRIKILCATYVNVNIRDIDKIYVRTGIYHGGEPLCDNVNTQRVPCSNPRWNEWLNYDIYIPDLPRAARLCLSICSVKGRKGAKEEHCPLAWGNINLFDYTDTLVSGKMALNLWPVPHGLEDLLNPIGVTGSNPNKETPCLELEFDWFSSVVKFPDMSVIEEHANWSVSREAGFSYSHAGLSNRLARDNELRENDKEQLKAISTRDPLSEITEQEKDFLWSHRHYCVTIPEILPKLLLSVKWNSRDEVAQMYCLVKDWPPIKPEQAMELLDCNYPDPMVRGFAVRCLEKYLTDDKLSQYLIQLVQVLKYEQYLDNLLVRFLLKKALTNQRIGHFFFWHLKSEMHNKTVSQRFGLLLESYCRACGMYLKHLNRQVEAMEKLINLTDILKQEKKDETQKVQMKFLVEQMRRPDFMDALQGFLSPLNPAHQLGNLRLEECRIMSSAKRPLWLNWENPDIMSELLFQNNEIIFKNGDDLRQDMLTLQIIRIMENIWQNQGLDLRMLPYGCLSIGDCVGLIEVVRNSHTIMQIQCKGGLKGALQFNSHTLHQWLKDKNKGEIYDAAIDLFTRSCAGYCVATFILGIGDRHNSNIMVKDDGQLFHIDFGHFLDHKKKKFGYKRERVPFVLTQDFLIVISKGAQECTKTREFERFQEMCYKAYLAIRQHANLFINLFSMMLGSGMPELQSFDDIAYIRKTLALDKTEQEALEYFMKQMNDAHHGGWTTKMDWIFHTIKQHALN
- Sequence (P27986 whole entry partner): as the sequence (P27986 whole entry partner) above
- test: In vitro enzyme assay, PI3K alpha
- Assay type: biochemical
- experimentalContext: ratio of alpha to delta IC50
observationType: PI3K: a/d
Number only, no unit.

Check out these entries, answers already filled in.
Item C[C@H](Nc1ncnc(N)c1C#N)c1nc2ccc(F)cc2nc1-c1ccccn1 [Example 7] : provide PI3K: a/d
1085

Item C[C@H](Nc1ncnc(N)c1C#N)c1cc2cccc(F)c2nc1-c1ccccc1S(C)(=O)=O [Example 1] : provide PI3K: a/d
3327

Item C[C@H](Nc1ncnc(N)c1C#N)c1nc2cccc(Cl)c2nc1-c1ccccc1S(C)(=O)=O [Example 5] : provide PI3K: a/d
1985

New cases:
Item C[C@H](Nc1ncnc(N)c1C#N)c1cc2ccc(F)cc2nc1-c1ccccn1 [Example 4] : provide PI3K: a/d
1206

---

- Test system: pAKT
- test: pAKT in vivo assay
- experimentalContext: WB, first value of the cell; mice, p.o.
Entries annotated with measured in vivo pAKT data, ED50 (uM) WB
Form entry: value (uM) — number only.

Check out these entries, answers already filled in.
Item C[C@H](Nc1ncnc(N)c1C#N)c1cc2cccc(F)c2nc1-c1ccccc1S(C)(=O)=O : provide in vivo pAKT data, ED50 (uM) WB
0.041

Item C[C@H](Nc1ncnc(N)c1C#N)c1nc2cccc(Cl)c2nc1-c1ccccc1S(C)(=O)=O : provide in vivo pAKT data, ED50 (uM) WB
0.056

We next turn to a different compound, shown below.
Item C[C@H](Nc1ncnc(N)c1C#N)c1cc2ccc(F)cc2nc1-c1ccccc1S(C)(=O)=O : provide in vivo pAKT data, ED50 (uM) WB
0.36

---

- testedOn: PI3Ka (Homo sapiens, UniProt P42336)
- Construct: Full length p110 subunits of PI3k α, β and δ, N-terminally labeled with polyHis tag; polyHis (N); made in house; host or cells: Sf9 insect cells (baculovirus)
- test: In vitro enzyme assay, PI3K alpha
- Format: biochemical
- experimentalContext: ratio of alpha to delta IC50
observationType: PI3K: a/d
Number only, no unit.

Check out these entries, answers already filled in.
Specify the recorded PI3K: a/d for C[C@H](Nc1ncnc(N)c1C#N)c1cc2ccc(F)cc2nc1-c1cccc(F)c1 , system: PI3Ka (Homo sapiens, UniProt P42336).
671

Specify the recorded PI3K: a/d for C[C@H](Nc1ncnc(N)c1C#N)c1cc2ccc(F)cc2nc1-c1ccccc1S(C)(=O)=O , system: PI3Ka (Homo sapiens, UniProt P42336).
903

New cases:
Specify the recorded PI3K: a/d for C[C@H](Nc1ncnc(N)c1C#N)c1nc2cccc(C#N)c2nc1-c1ccccc1S(C)(=O)=O , system: PI3Ka (Homo sapiens, UniProt P42336).
3571
